target: T1, human CD33 antigen (human, UniProt P20138 18-259, limits assumed); test: SPR (Biacore T200), 37 C, scFv-Fc, 10 uM MTX
T1 construct: whole entry named; also called Siglec-3
T1 sequence (P20138 18-259 limits assumed): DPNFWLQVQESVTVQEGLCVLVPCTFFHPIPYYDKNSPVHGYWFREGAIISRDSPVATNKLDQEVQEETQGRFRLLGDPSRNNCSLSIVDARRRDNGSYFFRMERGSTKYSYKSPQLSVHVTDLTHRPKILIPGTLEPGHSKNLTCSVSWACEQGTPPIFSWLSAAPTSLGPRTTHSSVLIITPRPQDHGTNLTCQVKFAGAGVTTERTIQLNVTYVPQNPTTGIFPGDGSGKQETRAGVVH
We begin with a simple list: items and their reported koff.
Field: numeric (s⁻¹). Do not append units.

Use these answered entries as a reference point.
P04_C09 scFv-Fc fusion (scFv, V domains shown, Tested as scFv-Fc fusion) VH: QVQLVESGGGLVQAGGSLRLSCAASRRSSRSWAMHWVRQAPGKGLEWVAVISYDGRLKYYADSVKGRFTISRDNAEYLVYLQMNSLRAEDTAVYYCAAEANESDSGGIDVWGQGTLVTVSS VL: DIQMTQSPSSLSASVGDRVTITCRASQTIGGYLNWYQQKPGKAPKLLIYAASSLQSGVPSRFSGSGSGTDFTLTISSLQPEDFATYYCQQGYSSGAFGQGTKVEIK | 0.0089
P08_C08 scFv-Fc fusion (scFv, V domains shown, Tested as scFv-Fc fusion) VH: QVQLVESGGGLVQAGGSLRLSCAASRRSSRSWAMHWVRQAPGKGLEWVAVISYDGRLKYYADSVKGRFTISRDNAEYLVYLQMNSLRAEDTAVYYCAAEGSGSTDGSGAIDVWGQGTLVTVSS VL: DIQMTQSPSSLSASVGDRVTITCRASQSIGSYLNWYQQKPGKAPKLLIYAASSLQSGVPSRFSGSGSGTDFTLTISSLQPEDFATYYCQQSYSSGSFGQGTKVEIK | 0.051

Note: attention shifts to another entry.
Problem: Identify the reported koff for the following entry. P01_C05 scFv-Fc fusion (scFv, V domains shown, Tested as scFv-Fc fusion) VH: QVQLVESGGGLVQAGGSLRLSCAASRRSSRSWAMHWVRQAPGKGLEWVAVISYDGRLKYYADSVKGRFTISRDNAEYLVYLQMNSLRAEDTAVYYCAAEQWGTNDGPDGGMDYWGQGTLVTVSS VL: DIQMTQSPSSLSASVGDRVTITCRASQTIGSHLNWYQQKPGKAPKLLIYGTSNLQSGVPSRFSGSGSGTDFTLTISSLQPEDFATYYCQQSYSSPLTFGQGTKVEIK
Result: 0.0045

Data origin, for the record: patent US20230192839A1
